Assay type: in vivo, human
SETTINGS: male, human, plasma, oral, 25 mg
PARAMETER MEASURED: concentration at 12 h (ng/mL)

item_smiles=O=C(Nc1nc2cccc(-c3ccc(CN4CCS(=O)(=O)CC4)cc3)n2n1)C1CC1 parameter_measured="concentration at 12 h" unit_label=ng/mL reported_measurement=3.75

----------
PROCEDURE SUMMARY: Non-compartmental plasma pharmacokinetics after a single oral filgotinib dose
Type: in vivo
SETTINGS: male, human, 200 mg
PARAMETER MEASURED: Tmax (h)

item_smiles=O=C(Nc1nc2cccc(-c3ccc(CN4CCS(=O)(=O)CC4)cc3)n2n1)C1CC1 parameter_measured=Tmax unit_label=h reported_measurement=3
